test system: NS3/4A protease Y56H/D168A; experiment: Enzyme inhibition assay, Y56H/D168A protease; type: biochemical, HCV; conditions: Y56H/D168A relative to WT protease
Measured quantity: loss in potency in enzyme inhibition assays

- Smiles string: "C=C[C@@H]1C[C@]1(NC(=O)[C@@H]1C[C@@H]2CN1C(=O)[C@H](C(C)(C)C)NC(=O)O[C@@H]1C[C@H]1CCCCCc1nc3ccc(OC)cc3nc1O2)C(=O)NS(=O)(=O)C1CC1"
  Target under test: "NS3/4A protease Y56H/D168A"
  Result: "2500 fold"
- Smiles string: "CC(C)(C)OC(=O)N[C@H]1CCCCC/C=C\\[C@@H]2C[C@@]2(C(=O)NS(=O)(=O)C2CC2)NC(=O)[C@@H]2C[C@@H](OC(=O)N3Cc4cccc(F)c4C3)CN2C1=O"
  Target under test: "NS3/4A protease Y56H/D168A"
  Result: "500 fold"
- Smiles string: "Cc1cnc(C(=O)N[C@H]2CCCCC/C=C\\[C@@H]3C[C@@]3(C(=O)NS(=O)(=O)C3CC3)NC(=O)[C@@H]3C[C@@H](Oc4nc5ccccc5c5ccccc45)CN3C2=O)cn1"
  Target under test: "NS3/4A protease Y56H/D168A"
  Result: "8500 fold"
- Smiles string: "CCc1nc2ccc(OC)cc2nc1O[C@@H]1C[C@H]2C(=O)N[C@]3(C(=O)NS(=O)(=O)C4CC4)C[C@H]3/C=C\\CCCCC[C@H](NC(=O)OC(C)(C)C)C(=O)N2C1"
  Target under test: "NS3/4A protease Y56H/D168A"
  Result: "200–400 fold"

----------
molecular target: NS3/4A protease D168A (Hepatitis C virus genotype 1a, UniProt P27958, D1194A); assay: biochemical; type: biochemical, HCV

- Smiles string: "CC(C)(C)OC(=O)N[C@H]1CCCCC/C=C\\[C@@H]2C[C@@]2(C(=O)NS(=O)(=O)C2CC2)NC(=O)[C@@H]2C[C@@H](OC(=O)N3Cc4cccc(F)c4C3)CN2C1=O"
  Ki [nM]: 199
